Quick reference: CC50 at 5 days of the listed items.
MEASUREMENT_NOTES: Cytotoxicity assay in MT-4 cells
Format: cell-based
TEST_CONDITIONS: human; uninfected MT-4 cells, 5 days incubation, Cell Titer Glo; read-out: MT4 CC50

>  <COMPOUND>
CCCCCCCCCCCCCCCCCCOC(=O)Oc1c2n(cc(C(=O)NCc3ccc(F)cc3F)c1=O)[C@@H]1CN(C2=O)[C@@H](C)CC[C@]12CC(C)=NO2 [Example 146]

>  <CC50 at 5 days>
≥ 50 µM

$$$$
>  <COMPOUND>
COC1=NO[C@@]2(CC[C@H](C)N3C[C@H]2n2cc(C(=O)NCc4ccc(F)cc4F)c(=O)c(OCOC(=O)OC(C)C)c2C3=O)C1 [Example 198]

>  <CC50 at 5 days>
≥ 50 µM

$$$$

Now look at this one.
Name the recorded CC50 at 5 days of the item CCCCCCCCCCCCCCCC(=O)OCOc1c2n(cc(C(=O)NCc3ccc(F)cc3F)c1=O)[C@@H]1CN(C2=O)[C@@H](C)CC[C@]12CC(OC)=NO2 [Example 104] in your answer.
≥ 50 µM

----------
MEASUREMENT_NOTES: Cytotoxicity assay in MT-4 cells
Format: cell-based
TEST_CONDITIONS: human; uninfected MT-4 cells, 5 days incubation, Cell Titer Glo; read-out: MT4 CC50
# note: boundary value 20 µM maps to No; CC50 at 5 days below it maps to Yes

In the record for CCCCCCCC(=O)OCOc1c2n(cc(C(=O)NCc3ccc(F)cc3F)c1=O)[C@@H]1CN(C2=O)[C@@H](C)CC[C@]12CC(OC)=NO2 , is CC50 at 5 days less than 20 µM?
No

Hi there! Is CC50 at 5 days for CC1=NO[C@@]2(CC[C@H](C)N3C[C@H]2n2cc(C(=O)NCc4ccc(F)cc4F)c(=O)c(OC(=O)CCCCCCCCCCCCCCCCC(=O)O)c2C3=O)C1 below 20 µM, do you know?
No

Say whether its CC50 at 5 days is strictly beneath 20 µM. Entry: COC1=NO[C@@]2(CC[C@H](C)N3C[C@H]2n2cc(C(=O)NCc4ccc(F)cc4F)c(=O)c(OCOC(=O)C(C)C)c2C3=O)C1
No

Determine whether this molecule shows CC50 at 5 days lower than 20 µM (ties excluded): COC[C@@H](C)OC(=O)OCOc1c2n(cc(C(=O)NCc3ccc(F)cc3F)c1=O)[C@@H]1CN(C2=O)[C@@H](C)CC[C@]12CC(C)=NO2
No

Here's an entry: CC1=NO[C@@]2(CC[C@H](C)N3C[C@H]2n2cc(C(=O)NCc4ccc(F)cc4F)c(=O)c(OC(=O)CCCC(=O)O)c2C3=O)C1 . Is its CC50 at 5 days below 20 µM?
Yes

----------
MEASUREMENT_NOTES: Cytotoxicity assay in MT-4 cells
Assay type: cell-based
TEST_CONDITIONS: human; uninfected MT-4 cells, 5 days incubation, Cell Titer Glo; read-out: MT4 CC50
Property: CC50 at 5 days; scope: individual molecules

See these solved cases before continuing.
>  <MOLECULE>
CCCCC(=O)Oc1c2n(cc(C(=O)NCc3ccc(F)cc3F)c1=O)[C@@H]1CN(C2=O)[C@@H](C)CC[C@]12CC(OC)=NO2 [Example 29]

>  <CC50 at 5 days>
12.3 µM

$$$$
>  <MOLECULE>
COC1=NO[C@@]2(CC[C@H](C)N3C[C@H]2n2cc(C(=O)NCc4ccc(F)cc4F)c(=O)c(OCOC(=O)OC[C@H](C)OC)c2C3=O)C1 [Example 220]

>  <CC50 at 5 days>
41.6 µM

$$$$
>  <MOLECULE>
CCCCCCCCCCOC(=O)OCOc1c2n(cc(C(=O)NCc3ccc(F)cc3F)c1=O)[C@@H]1CN(C2=O)[C@@H](C)CC[C@]12CC(C)=NO2 [Example 188]

>  <CC50 at 5 days>
38.5 µM

$$$$

Consider the record given below.
Given CCCCCC(=O)Oc1c2n(cc(C(=O)NCc3ccc(F)cc3F)c1=O)[C@@H]1CN(C2=O)[C@@H](C)CC[C@]12CC(OC)=NO2 [Example 36] , respond with its CC50 at 5 days.
19.6 µM

----------
MEASUREMENT_NOTES: Cytotoxicity assay in MT-4 cells
Type: cell-based
TEST_CONDITIONS: human; uninfected MT-4 cells, 5 days incubation, Cell Titer Glo; read-out: MT4 CC50
Binary label based on CC50 at 5 days with cut-off 20 µM: below gives label 1, not below gives label 0.

These solved cases illustrate the format of a correct answer.
>  <SMILES_REPRESENTATION>
CCCCCCCCCCCCCCCC(=O)Oc1c2n(cc(C(=O)NCc3ccc(F)cc3F)c1=O)[C@@H]1CN(C2=O)[C@@H](C)CC[C@]12CC(C)=NO2

>  <LABEL>
label 0

$$$$
>  <SMILES_REPRESENTATION>
COC1=NO[C@@]2(CC[C@H](C)N3C[C@H]2n2cc(C(=O)NCc4ccc(F)cc4F)c(=O)c(OC(=O)OCCCCCCC(C)C)c2C3=O)C1

>  <LABEL>
label 0

$$$$
>  <SMILES_REPRESENTATION>
COC1=NO[C@@]2(CC[C@H](C)N3C[C@H]2n2cc(C(=O)NCc4ccc(F)cc4F)c(=O)c(OC(C)=O)c2C3=O)C1

>  <LABEL>
label 1

$$$$
>  <SMILES_REPRESENTATION>
CCCC(=O)OCOc1c2n(cc(C(=O)NCc3ccc(F)cc3F)c1=O)[C@@H]1CN(C2=O)[C@@H](C)CC[C@]12CC(OC)=NO2

>  <LABEL>
label 1

$$$$
>  <SMILES_REPRESENTATION>
COC1=NO[C@@]2(CC[C@H](C)N3C[C@H]2n2cc(C(=O)NCc4ccc(F)cc4F)c(=O)c(OCOC(=O)OCC(C)C)c2C3=O)C1

>  <LABEL>
label 1

$$$$

Hi there! Is CC50 at 5 days for COC1=NO[C@@]2(CC[C@H](C)N3C[C@H]2n2cc(C(=O)NCc4ccc(F)cc4F)c(=O)c(OC(=O)C(C)C)c2C3=O)C1 below 20 µM, do you know?
label 0

Decide: CC50 at 5 days of COC1=NO[C@@]2(CC[C@H](C)N3C[C@H]2n2cc(C(=O)NCc4ccc(F)cc4F)c(=O)c(OCOC(=O)OC[C@@H](C)OC)c2C3=O)C1 strictly below 20 µM?
label 0

----------
MEASUREMENT_NOTES: Cytotoxicity assay in MT-4 cells
Format: cell-based
TEST_CONDITIONS: human; uninfected MT-4 cells, 5 days incubation, Cell Titer Glo; read-out: MT4 CC50
The entries below come with measured CC50 at 5 days values attached.
The reply should be a number in µM, with the unit left off.

>  <SMILES_REPRESENTATION>
CCCCCCCC(=O)Oc1c2n(cc(C(=O)NCc3ccc(F)cc3F)c1=O)[C@@H]1CN(C2=O)[C@@H](C)CC[C@]12CC(OC)=NO2

>  <CC50 at 5 days (µM)>
25.1

$$$$

Now, please, on to the next compound.
// Input: CCCCOC(=O)Oc1c2n(cc(C(=O)NCc3ccc(F)cc3F)c1=O)[C@@H]1CN(C2=O)[C@@H](C)CC[C@]12CC(C)=NO2 . Output its CC50 at 5 days only.
13.3

----------
MEASUREMENT_NOTES: Cytotoxicity assay in MT-4 cells
Type: cell-based
TEST_CONDITIONS: human; uninfected MT-4 cells, 5 days incubation, Cell Titer Glo; read-out: MT4 CC50
Examples of compounds with documented CC50 at 5 days follow.
Respond numerically; units are µM and should not be typed.

>  <COMPOUND>
COCCOCCOC(=O)Oc1c2n(cc(C(=O)NCc3ccc(F)cc3F)c1=O)[C@@H]1CN(C2=O)[C@@H](C)CC[C@]12CC(OC)=NO2 [Example 2]

>  <MEASURED_QUANTITY>
CC50 at 5 days

>  <READOUT_UNITS>
µM

>  <TEST_VALUE>
11.5

$$$$

Check the records and state CC50 at 5 days for CCCC(=O)Oc1c2n(cc(C(=O)NCc3ccc(F)cc3F)c1=O)[C@@H]1CN(C2=O)[C@@H](C)CC[C@]12CC(OC)=NO2 [Example 34]
16.3

Return reported CC50 at 5 days. Input compound: CCCCCCCCCOC(=O)Oc1c2n(cc(C(=O)NCc3ccc(F)cc3F)c1=O)[C@@H]1CN(C2=O)[C@@H](C)CC[C@]12CC(OC)=NO2 [Example 138]
14.1

Input COC(=O)Oc1c2n(cc(C(=O)NCc3ccc(F)cc3F)c1=O)[C@@H]1CN(C2=O)[C@@H](C)CC[C@]12CC(C)=NO2 [Example 121] , output reported CC50 at 5 days.
18.9

Input CC1=NO[C@@]2(CC[C@H](C)N3C[C@H]2n2cc(C(=O)NCc4ccc(F)cc4F)c(=O)c(OCOC(=O)C(C)(C)C)c2C3=O)C1 [Example 18] , output reported CC50 at 5 days.
20.1

Please supply the value of reported CC50 at 5 days for the item CCCCOC(=O)Oc1c2n(cc(C(=O)NCc3ccc(F)cc3F)c1=O)[C@@H]1CN(C2=O)[C@@H](C)CC[C@]12CC(OC)=NO2 [Example 128]
19.3
